// provenance: patent US4999366A

# System: serum cholesterol
# ASSAY_TEXT: Serum cholesterol in normal CF1 mice (Example 10)
# Type: in vivo, CF1 male mice
# COND: Mus musculus, 384 h, 20 mg/kg/day ip, Day 16, ± standard deviation, read-out: Serum Cholesterol, Day 16 (percent control)
Catalogue of response vs control in vivo at 20 mg/kg/day readings, one per entry.
Numeric only. Scale: %

Illustrative cases are given below, each with its answer.
record_smiles=CCC1(CC)C(=O)ON(C(=O)c2ccc(OC)cc2)C1=O result_number=62
record_smiles=CCC1(CC)C(=O)ON(C(=O)c2cc(OC)c(OC)c(OC)c2)C1=O result_number=51
record_smiles=CCC1(CC)C(=O)ON(C2(N3OC(=O)C(CC)(CC)C3=O)CCCCC2)C1=O result_number=73
record_smiles=C=C(C)N1OC(=O)C(CC)(CC)C1=O result_number=75
record_smiles=CCC1(CC)C(=O)ON(C(C)(C)N2OC(=O)C(CC)(CC)C2=O)C1=O result_number=57

In plain terms, "CCC1(CC)C(=O)ON(C(=O)c2ccc(Cl)cc2)C1=O" has a documented response vs control in vivo at 20 mg/kg/day of 45

Entry "C=C(c1ccccc1)N1OC(=O)C(CC)(CC)C1=O" , response vs control in vivo at 20 mg/kg/day reported as 63

The molecule "CCC1(CC)C(=O)ON(C(=O)c2ccccc2)C1=O" showed response vs control in vivo at 20 mg/kg/day equal to 53

Memo: "CCC1(CC)C(=O)ON(C(=O)c2ccc(C)cc2)C1=O" , reported response vs control in vivo at 20 mg/kg/day: 46

"CCC1(CC)C(=O)ON(C(=O)c2ccc(OC)c(OC)c2)C1=O" yielded response vs control in vivo at 20 mg/kg/day of 77
